Entries annotated with measured inhibition
# system.under.test: UniProt Q16539
# test.description: Inhibition of LPS Stimulated TNF Production by U937 Cells
# details: concentration not given here
Record the value in %, omitting the unit from your answer.

Take a look at these entries with their results.
                                   compound  value_type  readout_value
0  O=S(=O)(NCCc1[nH]nc(-c2ccc(F)cc2)c1-c1ccncc1)c1ccc(Cl)c(Cl)c1  inhibition             36
1  C[C@H](NC(=O)N[C@H](C)c1[nH]nc(-c2ccc(F)cc2)c1-c1ccncc1)c1ccccc1  inhibition             25
2  O=S(=O)(c1ccc(F)cc1)N1CCC(c2[nH]nc(-c3ccc(F)cc3)c2-c2ccncc2)CC1  inhibition             28

Query :: Using known records, supply inhibition for O=C(NCc1[nH]nc(-c2ccc(F)cc2)c1-c1ccncc1)Nc1ccc(I)cc1
Result :: 35

Query :: Report inhibition for C[C@@H](NC(=O)Nc1ccc(F)cc1)c1[nH]nc(-c2ccc(F)cc2)c1-c1ccncc1
Result :: 35

Query :: Tell me inhibition reported for C=CCN(C(=O)Cn1nc(-c2ccc(F)cc2)c(-c2ccncc2)c1C)C1CCCCC1
Result :: 6

Query :: Look up and state reported inhibition for O=C(NCc1[nH]nc(-c2ccc(F)cc2)c1-c1ccncc1)c1cccc(C(F)(F)F)c1F
Result :: 29

---

Listing: pIC50 of selected compounds
# system.under.test: MAPK14 (human)
# test.description: Inhibition of LPS Stimulated TNF Production by U937 Cells
pIC50: −log10 of the molar value.

Before answering, review these 6 worked examples.
In [3]: df
Out[3]:
                                   compound  readout_value
0  Cc1c(-c2ccncc2)c(-c2ccc(F)cc2)nn1CC(=O)N(C)CCCC1c2ccccc2CCc2ccccc21         < 5.00
1  COc1ccccc1C(=O)N[C@H](Cc1ccccc1)c1[nH]nc(-c2ccc(F)cc2)c1-c1ccncc1         < 6.00
2  CC(=O)OC(C)(C)C(=O)N[C@H](Cc1ccccc1)c1[nH]nc(-c2ccc(F)cc2)c1-c1ccncc1         < 6.00
3  CCN1CCC(N(CC)C(=O)Cn2nc(-c3ccc(F)cc3)c(-c3ccncc3)c2C)C1 (configuration not stated)         < 5.00
4  O=C(NCc1[nH]nc(-c2ccc(F)cc2)c1-c1ccncc1)c1cccs1         < 6.00
5  O=C(NCCc1[nH]nc(-c2ccc(F)cc2)c1-c1ccncc1)c1cc(Cl)cc(Cl)c1         < 6.00

Moving on to another compound below.
Query :: Return pIC50 for the following compound: COc1ccc(CN(CCc2ccccc2)C(=O)Cn2nc(-c3ccc(F)cc3)c(-c3ccncc3)c2C)cc1
Result :: < 5.00

---

# system.under.test: MAPK14 (human) (UniProt Q16539)
# Sequence (Q16539 whole entry, looked up): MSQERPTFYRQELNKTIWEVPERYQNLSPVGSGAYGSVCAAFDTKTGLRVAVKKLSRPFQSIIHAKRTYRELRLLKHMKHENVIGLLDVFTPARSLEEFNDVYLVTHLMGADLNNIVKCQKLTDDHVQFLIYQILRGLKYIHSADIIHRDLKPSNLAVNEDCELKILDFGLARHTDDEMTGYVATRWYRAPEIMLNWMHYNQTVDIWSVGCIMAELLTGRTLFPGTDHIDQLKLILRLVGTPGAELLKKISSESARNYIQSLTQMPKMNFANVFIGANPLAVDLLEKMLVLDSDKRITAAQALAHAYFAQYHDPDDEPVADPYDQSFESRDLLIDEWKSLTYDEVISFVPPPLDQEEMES
# test.description: Inhibition of LPS Stimulated TNF Production by U937 Cells
# details: concentration not given here
value.type: inhibition (%)
// units = %; emit number, no label

>>> df
                                test_smiles  unit  readout_value
0  O=C(NCCc1[nH]nc(-c2ccc(F)cc2)c1-c1ccncc1)c1ccno1     %             45
1  Cc1c(C)c(S(=O)(=O)N[C@H](C)c2[nH]nc(-c3ccc(F)cc3)c2-c2ccncc2)c(C)c2c1OC(C)(C)CC2     %             68
2  COC(=O)CCCCCCC(=O)NCc1[nH]nc(-c2ccc(F)cc2)c1-c1ccncc1     %              9

Query :: Report inhibition on MAPK14 (human) (UniProt Q16539) for this entry: O=S(=O)(NCc1[nH]nc(-c2ccc(F)cc2)c1-c1ccncc1)c1cccc2cnccc12
Result :: 24

Query :: Provide the reported inhibition (system: MAPK14 (human) (UniProt Q16539)) for C[C@H](NC(=O)c1cccc(C(F)(F)F)c1)c1[nH]nc(-c2ccc(F)cc2)c1-c1ccncc1
Result :: 32

Query :: Under MAPK14 (human) (UniProt Q16539), report inhibition for CCCCS(=O)(=O)NCCc1[nH]nc(-c2ccc(F)cc2)c1-c1ccncc1
Result :: 53

Query :: Answer with inhibition of O=C(NCc1[nH]nc(-c2ccc(F)cc2)c1-c1ccncc1)C1CCC1 measured for MAPK14 (human) (UniProt Q16539).
Result :: 28

Query :: Please indicate recorded inhibition of C[C@@H](NC(=O)C1CCC1)c1[nH]nc(-c2ccc(F)cc2)c1-c1ccncc1 measured with MAPK14 (human) (UniProt Q16539).
Result :: 19

Query :: Using MAPK14 (human) (UniProt Q16539) as the test system, report measured inhibition of O=S(=O)(c1cccc(C(F)(F)F)c1)N1CCC(c2[nH]nc(-c3ccc(F)cc3)c2-c2ccncc2)CC1 .
Result :: 10

Query :: Fill: inhibition (MAPK14 (human) (UniProt Q16539)) for this compound C[C@@H](NS(=O)(=O)c1ccc(C#N)cc1)c1[nH]nc(-c2ccc(F)cc2)c1-c1ccncc1
Result :: 90

Query :: Report inhibition under test system MAPK14 (human) (UniProt Q16539) for C[C@H](NC(=O)[C@H]1CCCN1)c1[nH]nc(-c2ccc(F)cc2)c1-c1ccncc1 .
Result :: 20

Query :: State recorded inhibition with MAPK14 (human) (UniProt Q16539), entry CCCOC(=O)NCc1[nH]nc(-c2ccc(F)cc2)c1-c1ccncc1 , no comment.
Result :: 65

Query :: # return inhibition for COc1ccc(NC(=O)N[C@H](C)c2[nH]nc(-c3ccc(F)cc3)c2-c2ccncc2)c(OC)c1 , test system: MAPK14 (human) (UniProt Q16539)
Result :: 40

Query :: Jot down inhibition (MAPK14 (human) (UniProt Q16539)) of CNC(=O)CC[C@H](NC(C)=O)c1[nH]nc(-c2ccc(F)cc2)c1-c1ccncc1 .
Result :: 46

Query :: Give reported inhibition for O=C(NCc1[nH]nc(-c2ccc(F)cc2)c1-c1ccncc1)C(F)(F)C(F)(F)C(F)(F)F (MAPK14 (human) (UniProt Q16539))
Result :: 54

Query :: // output inhibition; input Cc1onc(-c2ccccc2Cl)c1C(=O)NCc1[nH]nc(-c2ccc(F)cc2)c1-c1ccncc1 ; system MAPK14 (human) (UniProt Q16539)
Result :: 21

Query :: Give reported inhibition for Cc1c(-c2ccncc2)c(-c2ccc(F)cc2)nn1CC(=O)N(C)CCN1CCOCC1 (MAPK14 (human) (UniProt Q16539))
Result :: 28

Query :: Answer with inhibition of O=C(NCCCc1[nH]nc(-c2ccc(F)cc2)c1-c1ccncc1)NCc1ccccn1 measured for MAPK14 (human) (UniProt Q16539).
Result :: 10

Query :: Provide the reported inhibition (system: MAPK14 (human) (UniProt Q16539)) for O=S(=O)(NCc1[nH]nc(-c2ccc(F)cc2)c1-c1ccncc1)c1ccc(S(=O)(=O)c2ccccc2)s1
Result :: 64

Query :: GET inhibition where system = MAPK14 (human) (UniProt Q16539) and item = COC(=O)C(=O)NCc1[nH]nc(-c2ccc(F)cc2)c1-c1ccncc1
Result :: 79

Query :: Provide measured inhibition on MAPK14 (human) (UniProt Q16539) for CNC(=O)CC[C@H](NC(=O)c1ccc(I)cc1)c1[nH]nc(-c2ccc(F)cc2)c1-c1ccncc1 please.
Result :: 8

Query :: # lookup: MAPK14 (human) (UniProt Q16539) inhibition, key = O=S(=O)(NCc1[nH]nc(-c2ccc(F)cc2)c1-c1ccncc1)c1ccc(-c2ccon2)s1
Result :: 89

Query :: Look up and report measured inhibition (MAPK14 (human) (UniProt Q16539)) for the following compound: C[C@H](NC(=O)Nc1ccc(F)cc1)c1[nH]nc(-c2ccc(F)cc2)c1-c1ccncc1
Result :: 26

Query :: // fetch inhibition; item: Cc1c(-c2ccncc2)c(-c2ccc(F)cc2)nn1CC(=O)Nc1ccccc1Sc1ccc([N+](=O)[O-])cn1 ; system: MAPK14 (human) (UniProt Q16539)
Result :: 18

Query :: Quote inhibition with test system MAPK14 (human) (UniProt Q16539) for C[C@@H](NC(=O)c1cccc(Br)c1)c1[nH]nc(-c2ccc(F)cc2)c1-c1ccncc1
Result :: 27

---

Property: pIC50; scope: individual molecules
# system.under.test: MAPK14 (human)
# test.description: Inhibition of MAPK14 Kinase Activity by PHAS-I Assay
By convention, pIC50 is the negative base-10 log of a molar concentration.

>>> print(df.to_string())
                                test_smiles  readout_value
0         Cn1cc(-c2ccncc2)c(-c2ccc(F)cc2)n1           6.15
1  C[C@@H](NC(=O)c1ccc(F)cc1)c1[nH]nc(-c2ccc(F)cc2)c1-c1ccncc1           6.18
2  C[C@H](NS(=O)(=O)[C@]12CC[C@@H](CC1=O)C2(C)C)c1[nH]nc(-c2ccc(F)cc2)c1-c1ccncc1           6.08
3  C[C@@H](NC(=O)NCc1[nH]nc(-c2ccc(F)cc2)c1-c1ccncc1)c1ccccc1           6.04

Query :: Look up and state reported pIC50 for Clc1ccc(-c2n[nH]c(N3CCSCC3)c2-c2ccncc2)cc1
Result :: 6.11

Query :: Quickly give me recorded pIC50 for CNC(=O)CC[C@H](NC(C)=O)c1[nH]nc(-c2ccc(F)cc2)c1-c1ccncc1
Result :: 6.18

Query :: Output pIC50 of C[C@H](NS(=O)(=O)c1ccccc1C(=O)O)c1[nH]nc(-c2ccc(F)cc2)c1-c1ccncc1
Result :: 6.12

Where do these numbers come from? They come from the Kinase Knowledgebase extract (Sharma et al. 2016).
